# Target under test: Proteinase-activated receptor 4 (Homo sapiens)
# Sequence (Q96RI0 whole entry): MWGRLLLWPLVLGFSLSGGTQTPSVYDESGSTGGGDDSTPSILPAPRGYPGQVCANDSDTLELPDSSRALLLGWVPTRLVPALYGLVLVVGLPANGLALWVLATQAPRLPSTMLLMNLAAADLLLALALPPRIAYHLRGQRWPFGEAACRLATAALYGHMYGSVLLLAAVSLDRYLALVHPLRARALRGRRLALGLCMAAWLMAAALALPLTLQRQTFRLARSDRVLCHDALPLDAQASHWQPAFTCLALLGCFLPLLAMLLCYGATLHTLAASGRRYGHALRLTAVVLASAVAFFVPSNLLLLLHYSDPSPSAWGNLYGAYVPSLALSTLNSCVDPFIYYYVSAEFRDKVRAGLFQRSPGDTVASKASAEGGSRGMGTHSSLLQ
# Test protocol: Antagonist activity at full-length human PAR4 expressed in HEK293 cells assessed as inhibition of AYPGKF-induced intracellular calcium mobilization preincubated for 30 mins followed by AYPGKF addition and measured by calcium indicator-based FLIPR assay
Recorded metric: IC50 (nM)

Substance smiles	Unit abbreviation	IC50
COc1cc(OCc2cccc(C(F)(F)F)c2)c2cc(-c3cn4nc(OC)sc4n3)oc2c1	nM	3.1
COc1cc(OCc2cccc(CCc3ccccc3)c2)c2cc(-c3cn4nc(OC)sc4n3)oc2c1	nM	2.4
COc1nn2cc(-c3cc4cccc(OC)c4o3)nc2s1	nM	2.8
COc1cc(OCCOCc2ccccc2)c2cc(-c3cn4nc(OC)sc4n3)oc2c1	nM	1.8
COc1cc(OCc2cccc(Oc3ccccc3)c2)c2cc(-c3cn4nc(OC)sc4n3)oc2c1	nM	1.2
COc1cc(OCCc2ccccc2)c2cc(-c3cn4nc(OC)sc4n3)oc2c1	nM	1.1

a: COc1cc(OCCOc2ccccc2)c2cc(-c3cn4nc(OC)sc4n3)oc2c1
b: CC(C)Oc1nn2cc(-c3cc4ccccc4o3)nc2s1
c: COc1cc(OCc2ccccc2C(F)(F)F)c2cc(-c3cn4nc(OC)sc4n3)oc2c1
d: COc1ccc(COc2cc(OC)cc3oc(-c4cn5nc(OC)sc5n4)cc23)cc1
Prompt line: Hey, quick one: sort these by IC50, largest value first please. Submit the labels in the order that the ranking request calls for.
Response line: b, c, d, a
(b: 760 nM, c: 3.4 nM, d: 1.6 nM, a: 0.81 nM)
